Reported IC50 against Histone deacetylase 1 (Homo sapiens), gathered from multiple publications, appears below.
readout-type: IC50 (µM)

[[record]]
compound = "Nc1ccccc1NC(=O)c1ccc(N2CC[C@H](NC(=O)OCc3cccnc3)C2)cc1"
experimental_system = "Histone deacetylase 1 (Homo sapiens)"
comparison_symbol = "≤"
recorded_value = 1

[[record]]
compound = "CCC(=O)CCCCC[C@H](NC(=O)c1csnn1)c1ncc(-c2cc3ccccc3nc2OC)o1"
experimental_system = "Histone deacetylase 1 (Homo sapiens)"
comparison_symbol = "<"
recorded_value = 0.1

[[record]]
compound = "CN(C)[C@@H]1CCN(c2ccc3c(c2)C(C)(C)C(=O)N(Cc2ccc(-c4nnc(C(F)F)o4)cn2)C3=O)C1"
experimental_system = "Histone deacetylase 1 (Homo sapiens)"
comparison_symbol = ">"
recorded_value = 10

[[record]]
compound = "O=C(/C=C/c1ccc(C2CCCN2CCc2ccccc2F)cc1)NO (centres unmarked)"
experimental_system = "Histone deacetylase 1 (Homo sapiens)"
comparison_symbol = "="
recorded_value = 0.006

[[record]]
compound = "CCCN(CCn1cnc2cc(/C=C/C(=O)NO)ccc21)CC(C)(C)C"
experimental_system = "Histone deacetylase 1 (Homo sapiens)"
comparison_symbol = "="
recorded_value = 0.22

[[record]]
compound = "CN1CCN(c2c(N(Cc3ccc(-c4nnc(C(F)F)o4)cc3F)c3cccc(Br)c3)c(=O)c2=O)CC1"
experimental_system = "Histone deacetylase 1 (Homo sapiens)"
comparison_symbol = ">"
recorded_value = 10

[[record]]
compound = "CCC(=O)CCCCC[C@H](NC(=O)[C@H]1CC12CCN(CC)CC2)c1[nH]c2nc1C(=O)NCCC/C=C\\c1cccc-2c1"
experimental_system = "Histone deacetylase 1 (Homo sapiens)"
comparison_symbol = "="
recorded_value = 0.133

[[record]]
compound = "Cc1c(Cc2ccc(C(=O)NO)cc2)c2ccccc2n1CCN1CCN(C)CC1"
experimental_system = "Histone deacetylase 1 (Homo sapiens)"
comparison_symbol = "="
recorded_value = 2.22


---

Reported pIC50 against Histone deacetylase 1 (Homo sapiens), gathered from multiple publications, appears below.
pIC50: −log10 of the molar value.
The label depends only on pIC50: TRUE if it is at least 7, FALSE if it is smaller.

[[record]]
line_notation = "O=C(NO)c1ccc(C2=Nc3ccccc3Oc3ccccc32)cc1"
assigned_class = "TRUE"

[[record]]
line_notation = "CCCCCCc1nc2cc(/C=C/C(=O)NO)ccc2n1CCN(C)C"
assigned_class = "TRUE"

[[record]]
line_notation = "CC(C)(C)OC(=O)N1CC=C(c2ccc3c(ccn3Cc3ccc(C(=O)NO)cc3)n2)CC1"
assigned_class = "FALSE"

[[record]]
line_notation = "CCC(=O)CCCCC[C@H](NC(=O)C1CCN(C)CC1)c1ncc(-c2cc3ccccc3n(C)c2=O)o1"
assigned_class = "TRUE"

[[record]]
line_notation = "CC(=O)N1CC2(C1)C(=O)N(Cc1ccc(-c3nnc(C(F)F)o3)cn1)C(=O)N2c1ccccc1"
assigned_class = "FALSE"

[[record]]
line_notation = "O=C(NO)c1ccc2ccn(CCOc3ccccc3CN3CCOCC3)c2c1"
assigned_class = "FALSE"

[[record]]
line_notation = "Cn1c(=O)n(Cc2ccc(-c3nnc(C(F)F)o3)cn2)c(=O)c2cc(-c3ccncc3)ccc21"
assigned_class = "FALSE"

[[record]]
line_notation = "O=C(NO)c1ccc(Cn2ccc3c(N4CC5CCC(C4)N5Cc4cccnc4)ccnc32)cc1"
assigned_class = "FALSE"

[[record]]
line_notation = "CN1CCN(c2ccc(C(=O)Nc3cc(-c4ccoc4)ccc3N)cn2)CC1"
assigned_class = "TRUE"

[[record]]
line_notation = "Cc1c(Cc2ccc(C(=O)NO)cc2)c2ccccc2n1CC1CCN(CC2(F)CCN(S(C)(=O)=O)CC2)CC1"
assigned_class = "FALSE"

[[record]]
line_notation = "CN1CCN(c2ccc(-c3ccc(S(=O)(=O)N4CC=C(C(=O)NO)CC4)cn3)cc2)CC1"
assigned_class = "TRUE"

[[record]]
line_notation = "Cn1ncc2ccc(-c3cnc4c(ccn4Cc4ccc(C(=O)NO)cc4)c3)cc21"
assigned_class = "FALSE"

[[record]]
line_notation = "CN(C)S(=O)(=O)c1cccc(-c2nnn(Cc3ccc(C(=O)NO)cc3)n2)c1"
assigned_class = "FALSE"

